# assay-text: BSK_hDFCGF_SRB: Viability Assessment in the BioMAP Diversity Plus: hDFCGF Assay (AID 2283061);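 also: cells exposed to compound for 24 h before the read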
# settings: primary human foreskin fibroblasts
Activity calls are given as the source filed them. The calls were made as follows: active = hit-call score of the fitted dose curve at least 0.9, where 1 is the maximum; inactive = score below 0.9.
Give one outcome, nothing more. List: class 1 = active, class 0 = inactive

Reference set, count: 4
I'd appreciate the recorded outcome for CCc1cc(C)cc(CC)c1-c1c(OC(=O)C(C)(C)C)n2n(c1=O)CCOCC2 from this test.
class 1

Okay, and CC(C)(C)C(O)C(Oc1ccc(-c2ccccc2)cc1)n1cncn1 (centres undefined) ?
class 0

Quick one: CC(C)CCCCCCCOP(=O)(Oc1ccccc1)Oc1ccccc1
class 1

Please do the same for Cc1ccc(OP(=O)(Oc2ccc(C)cc2)Oc2ccc(C)cc2)cc1 (tested in a mixture with another compound) as well.
class 1

Next:
Query: recorded result category for O=[N+]([O-])c1ccc(Cl)cc1 in this test
class 0

Same question for c1ccc(Nc2ccc3ccccc3c2)cc1 please.
class 1

Also check CCCCCCCCCCCC#N
class 1

Also need CC1(C)[C@H](C(=O)O[C@H](C#N)c2cccc(Oc3ccccc3)c2)[C@@H]1C=C(Br)Br , thanks.
class 0

What about COCC(=O)N(c1c(C)cccc1C)N1CCOC1=O ?
class 0

Now consider Clc1ccc(-c2ccccc2)cc1 and answer again.
class 0

// next record O=c1[nH]c(Cl)c(Cl)cc1Cl
class 0

Try the compound CC(C)COP(=O)(OCC(C)C)OCC(C)C
class 0

Can you handle CCC(C)c1cc([N+](=O)[O-])cc([N+](=O)[O-])c1OC(=O)C=C(C)C (centres undefined) next?
class 1

Also C=CCN(CC=C)C(=O)C(Cl)Cl ?
class 0
